These measurements were taken from the supplement of paper PMC8285479.

Listing of recorded normalised cell viability by entry.
Tested on: NCI-H1944
Assay: normalised cell viability (NPI; 0 = phenylarsine oxide control, 1 = DMSO control) (fraction of DMSO control); higher = more viable cells (less compound toxicity)
Conditions: glucocorticoid arm: hydrocortisone 2.75 uM co-treatment; compound 5 µM; 6 days
Where a name gives a salt, the structure may show the parent alone. The full ranking holds about 1,900 compounds; the median of “normalised cell viability (NPI; 0 = phenylarsine oxide control, 1 = DMSO control)” is about 1, and the lowest 2% start at about 0.039. Shown is part of a subset that was picked to be rich in the lowest values.
measured.quantity: normalised cell viability

# compound, reported.value
data = [
    ("Nc1ncnc2c1nc(Br)n2C1OC2COP(=O)(O)O[C@@H]2C1O (some centres not stated) [8-Bromo-cAMP sodium]", 0.901),
    ("CNC(=O)[C@H]1O[C@@H](n2cnc3c(N)ncnc32)[C@H](O)[C@@H]1O [5'-N-Methyl carboxamidoadenosine]", 0.972),
    ("CCCS(=O)(=O)Nc1ccc(F)c(C(=O)c2c[nH]c3ncc(-c4ccc(Cl)cc4)cc23)c1F [Vemurafenib (PLX4032)]", 0.997),
    ("CC(C)[C@H]1c2ccc(F)cc2CC[C@@]1(CCN(C)CCCc1nc2ccccc2[nH]1)OC(=O)C1CC1", -0.000718),
    ("N[C@@H](Cc1c[nH]cn1)C(=O)O [L-Histidine hydrochloride]", 0.996),
    ("CC(C)(C)NCC(O)COc1cccc2[nH]c(=O)[nH]c12 (racemic)", 0.974),
    ("CCOC(=O)[C@]12CC1/C(=N\\O)c1ccccc1O2 (some centres not stated)", 1.01),
    ("N#Cc1ccc2[nH]c(O)c(-c3ccc(CN4CCOCC4)cn3)c2c1", 1.24),
    ("Nc1nc2[nH]cnc2c(=S)[nH]1 [Thioguanine]", 0.423),
    ("CC(C)C[C@@H]1NC(=O)[C@@H](C(C)C)NC(=O)[C@@H]2CCCN2C(=O)[C@@H](CC(=O)O)NC(=O)[C@@H](Cc2c[nH]c3ccccc23)NC1=O", 1),
    ("N#C/C(=C/c1ccc(O)c(O)c1)C(=O)N1CCc2ccccc21 [Tyrphostin AG 528]", 0.987),
    ("COc1ccc(NC(=O)c2ccc(-c3ccc(-c4noc(C)n4)cc3C)cc2)cc1N1CCN(C)CC1", 0.000294),
    ("CCCS(=O)(=O)Nc1ccc(F)c(C(=O)c2c[nH]c3ncc(-c4ccc(Cl)cc4)cc23)c1F [vemurafenib]", 1.14),
    ("COCC(=O)O[C@]1(CCN(C)CCCc2nc3ccccc3[nH]2)CCc2cc(F)ccc2[C@@H]1C(C)C [Mibefradil dihydrochloride]", 0.0303),
    ("N=C(NC(=O)c1nc(Cl)c(N)nc1N)Nc1ccccc1 [Phenamil methanesulfonate]", 1.04),
    ("CCS(=O)(=O)Nc1ccc2[nH]c(O)c(C(=Nc3ccc(CN4CCCCC4)cc3)c3ccccc3)c2c1 [Hesperadin]", 0.396),
    ("OC[C@H]1O[C@@H](n2cnc3c2N=CNC[C@H]3O)C[C@@H]1O [Pentostatin]", 1.01),
]

====

Test system: NCI-H1944
Test: normalised cell viability (NPI; 0 = phenylarsine oxide control, 1 = DMSO control) (fraction of DMSO control); higher = more viable cells (less compound toxicity)
Details: glucocorticoid arm: hydrocortisone 2.75 uM co-treatment; compound 1 µM; 6 days
Where a name gives a salt, the structure may show the parent alone. In all, about 1,900 compounds were measured (“normalised cell viability (NPI; 0 = phenylarsine oxide control, 1 = DMSO control)”: median about 1, lowest 2% from about 0.039 on). For the sample, the lowest values were picked, then their nearest neighbours and some compounds at random.
Listing of recorded normalised cell viability by entry.

# molecule, normalised cell viability
records = [
    ("CCC1=C[C@@H]2CN(C1)Cc1c([nH]c3ccccc13)[C@@](C(=O)OC)(c1cc3c(cc1OC)N(C)[C@H]1[C@@](O)(C(=O)OC)[C@H](OC(C)=O)[C@]4(CC)C=CCN5CC[C@]31[C@@H]54)C2 [Vinorelbine tartrate]", 0.327),
    ("CNCc1ccc(-c2[nH]c3cc(F)cc4c3c2CCNC4=O)cc1", 0.982),
    ("CN(C)CCCn1cc(C2=C(c3c[nH]c4ccccc34)C(=O)NC2=O)c2ccccc21", 0.992),
    ("Nc1ccccc1NC(=O)c1ccc(CNC(=O)OCc2cccnc2)cc1 [Entinostat]", 0.925),
    ("Nc1ccccc1NC(=O)c1ccc(CNC(=O)OCc2cccnc2)cc1 [Entinostat (MS-275)]", 1.05),
    ("CNC(=O)c1nn(C)c2c1C(C)(C)Cc1cnc(Nc3ccc(N4CCN(C)CC4)cc3)nc1-2", 0.485),
    ("CNc1ncnc2c1ncn2[C@H]1C[C@H](OP(=O)(O)O)[C@@H](COP(=O)(O)O)O1", 0.991),
    ("Cc1ccc(NC(=O)c2ccc(CN3CCN(C)CC3)cc2)cc1Nc1nccc(-c2cccnc2)n1 [Imatinib Mesylate]", 1.05),
    ("CC(=O)Nc1ccc(C(=O)Nc2ccccc2N)cc1", 1.02),
    ("CC(C(=O)Nc1cccc(/N=C/c2c(O)ccc3ccccc23)c1)c1ccccc1 (configuration not stated) [Salermide]", 0.999),
    ("Cc1ccc(NC(=O)c2ccc(CN3CCN(C)CC3)cc2)cc1Nc1nccc(-c2cccnc2)n1 [Imatinib (Gleevec)]", 1.05),
    ("CN1CCN(c2ccc(OC(F)(F)F)c(Nc3ncc4c(n3)-c3c(c(C(N)=O)nn3CCO)CC4)c2)CC1", 0.183),
    ("COc1ccc(C(=O)NCc2cccnc2)cc1C(=O)NCc1cccnc1 [Picotamide]", 0.989),
    ("CCC(=O)Nc1cccc(Oc2nc(Nc3ccc(N4CCN(C)CC4)cc3OC)ncc2Cl)c1", 1.07),
    ("COC(=O)[C@]12CCC(C)(C)C[C@H]1[C@H]1C(=O)C=C3[C@@]4(C)C=C(C#N)C(=O)C(C)(C)[C@@H]4CC[C@@]3(C)[C@]1(C)CC2", 0.00114),
    ("C=C/C(C)=C/[C@@]1(C)SC(=O)C(C)=C1O", 0.992),
    ("Cc1ccc(NC(=O)c2ccc(CN3CCN(C)CC3)cc2)cc1Nc1nccc(-c2cccnc2)n1", 1.04),
]

====

Test system: NCI-H1944;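 also: CTB read-out in 384-well plates, triplicate wells, NPI normalised per plate against 1 µM phenylarsine oxide (0) and 0.1% DMSO (1) controls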
Test: normalised cell viability (NPI; 0 = phenylarsine oxide control, 1 = DMSO control) (fraction of DMSO control); NCI-H1944 is a non-small cell lung cancer line; higher = more viable cells (less compound toxicity)
Conditions: glucocorticoid arm: vehicle; compound 1 µM; 6 days
Counter-ions that a name gives are not always drawn. The full ranking holds about 1,900 compounds; the median of “normalised cell viability (NPI; 0 = phenylarsine oxide control, 1 = DMSO control)” is about 1, and the lowest 2% start at about 0.039. The full list was thinned out, with the lowest values kept by preference.

# molecule, target.under.test, normalised cell viability
data = [
    ("Nc1c(O)cc(O)cc1C=Cc1ccc(O)cc1 [Aminoresveratrol sulfate]", "NCI-H1944", 0.994),
    ("Cn1c(=O)n(-c2ccc(C(C)(C)C#N)cc2)c2c3cc(-c4cnc5ccccc5c4)ccc3ncc21", "NCI-H1944", 0.255),
    ("O=C(O)c1cc(O)c2ccc(Cl)cc2n1 [7-Chlorokynurenic acid]", "NCI-H1944", 1.01),
    ("O=C(O)C=C1CCCc2ccccc2C1O (stereo not drawn)", "NCI-H1944", 0.983),
    ("COc1ccc(-c2ccc3ncc4c(c3c2)n(-c2ccc(N3CCNCC3)c(C(F)(F)F)c2)c(=O)n4C)cn1", "NCI-H1944", 0.000974),
    ("CC(C)C[C@H](NC(=O)CNC(=O)c1cc(Cl)ccc1Cl)B(O)O", "NCI-H1944", 0.311),
    ("Cc1cnc(NC(=O)Nc2cc(Br)c(C)cc2OC[C@@H]2CNCCO2)cn1", "NCI-H1944", 0.776),
    ("C=CC(=O)Nc1ccc2ncnc(Nc3ccc(OCc4cccc(F)c4)c(Cl)c3)c2c1", "NCI-H1944", 0.815),
    ("Cc1[nH]c2ccccc2c1C1=C(NCCc2ccc(F)cc2)C(=O)N(C)C1=O", "NCI-H1944", 0.977),
    ("CC[C@@H]1SC2(CCN(C)CC2)NC1=O", "NCI-H1944", 1.01),
    ("CC(Cc1ccccc1)Nc1ncnc2c1ncn2C1OC(CO)C(O)C1O (stereo not drawn) [R(-)-N6-(2-Phenylisopropyl)adenosine]", "NCI-H1944", 1.01),
    ("NC(=S)c1ccc[n+]([C@@H]2O[C@@H](COP(=O)([O-])OP(=O)(O)OC[C@H]3O[C@@H](n4cnc5c(N)ncnc54)C(OP(=O)(O)O)[C@H]3O)C(O)C2O)c1 (stereo partly drawn) [Thio-NADP sodium]", "NCI-H1944", 1.01),
    ("Cc1[nH]c2ccccc2c1CCNCc1ccc(/C=C/C(=O)NO)cc1 [Panobinostat (LBH589)]", "NCI-H1944", 0.00625),
    ("CC(C)C[C@H](NC(=O)CNC(=O)c1cc(Cl)ccc1Cl)B1OC(=O)CC(CC(=O)O)(C(=O)O)O1 (stereo partly drawn)", "NCI-H1944", 0.263),
    ("CC(C)(C)OC(=O)Nc1ccc(-c2cc(C(=O)NCCCCCCC(=O)NO)no2)cc1", "NCI-H1944", 0.806),
    ("C[C@]12CC[C@@H]3c4ccc(O)cc4CC[C@H]3[C@@H]1CC[C@@H]2O [beta-Estradiol]", "NCI-H1944", 0.975),
    ("S=C(S)N1CCCC1 [Ammonium pyrrolidinedithiocarbamate]", "NCI-H1944", 1),
    ("CN(CC[C@@H](Oc1ccc(C(F)(F)F)cc1)c1ccccc1)CC(=O)[O-].[Li+]", "NCI-H1944", 0.979),
]
